assay: Toxicity liver stage against HepG2, at 10uM; type: cell-based; parameters: test concentration 10 uM, cell line HepG2-A16-CD81EGFP; details: human, HepG2-A16-CD81EGFP cells; read-out: INHIBITION
outcome_measure: cytotoxicity at 10 µM (%)
Express the result in % but write the number alone.

Tell me its cytotoxicity at 10 µM given "Cc1cnn(CCNCc2c(C)nn(Cc3ccccc3)c2C)c1" as the entry.
-3.46

Specify reported cytotoxicity at 10 µM for the compound shown: "O=C(c1ccc(O)c(Cl)c1)N1CCN(c2nccs2)CC1"
-10.3

Specify reported cytotoxicity at 10 µM for the compound shown: CCc1nc(C2CCCN2C(=O)CCc2ccc3c(c2)OCO3)no1 (configuration not stated)
-4.62

Complete the entry with cytotoxicity at 10 µM for COc1ccccc1C(=O)NC(CC(=O)O)c1cccs1 (configuration not stated)
-0.337

Kindly indicate its recorded cytotoxicity at 10 µM. Item: "CN(C)C(=O)CNS(=O)(=O)c1cc(Br)ccc1F"
-47.1

Consider the compound "CS(=O)(=O)Cc1nc(C2CC2)nn1-c1ccccn1" and give its recorded cytotoxicity at 10 µM.
1.87

Specify cytotoxicity at 10 µM for "Cn1cncc1-c1nnc([C@H]2CCN(CC(C)(C)C)C2)o1" and stop.
2.26

Consider the compound "COCC(=O)NCc1cnc(C)nc1-c1cn(C)c2ccc(OC)cc12" and give its recorded cytotoxicity at 10 µM.
11.9

Determine from records and report cytotoxicity at 10 µM for "O=C(N1CCCC1)N1C[C@@H]2CN(Cc3ccoc3)CCO[C@@H]2C1"
-76.7

Tell me measured cytotoxicity at 10 µM for "CCN1CCc2c(c(COC)nn2C)C1" please.
5.09

Retrieve cytotoxicity at 10 µM measured for "CCOc1ncccc1CNC(=O)Nc1cc(C)nn1C" and print it.
1.25

Specify measured cytotoxicity at 10 µM for Cc1nc2cc(-c3nccn3C)nn2c(N2CCCC(CO)C2)c1C (configuration not stated) .
-4.38
